These entries and their values trace back to PubChem BioAssay (NCI).

# Experimental details: NCI Yeast Anticancer Drug Screen. Data for the rad50 strain (AID 155)
# Applied conditions: S. cerevisiae rad50 strain growth inhibition; at 50.0 µM
The panel holds about 79,000 compounds, 15% with a hit somewhere; the sample as a whole holds those more often. The source made the active and inactive calls. Cut-off read from the data, not from the text of the source: active = growth inhibition above about 70%; inactive = the rest.
Outcomes: active, inactive

>>> label_class("CC(C)CCCC(O)CNCc1ccccc1 (stereo unspecified)")
"inactive"
>>> label_class("CCC(COS(=O)(=O)c1ccc(C)cc1)(COS(=O)(=O)c1ccc(C)cc1)COS(=O)(=O)c1ccc(C)cc1")
"inactive"
>>> label_class("O=C1c2cc(Br)cc(Br)c2NCCC1(Br)Br")
"active"
>>> label_class("O=C(Nc1ccccc1C(=O)NC(=O)c1ccccc1NC(=O)c1ccccc1)c1ccccc1")
"inactive"
>>> label_class("CN(C)CC(C)(CN(C)C)C(=O)/C=C/c1ccc(Cl)c(Cl)c1")
"active"
>>> label_class("CCCc1cc2c(cc1COc1ccccc1C(=O)O)OCO2")
"inactive"
>>> label_class("O=C(Cc1nc2ccccc2s1)Nc1ccc2ccccc2c1")
"active"
>>> label_class("CCOC(=O)N1C=C(C(=O)OC)C(c2ccccc2)C(C(=O)OC)=C1")
"inactive"
>>> label_class("Cc1c(-c2ccccc2)ccnc1/C=N/NC(=S)NCCc1ccccc1")
"active"
>>> label_class("CCOc1ccc(C(OC)OC)cc1[N+](=O)[O-]")
"inactive"
>>> label_class("O=P1(N2CCCCC2)N(Cc2ccc(Cl)cc2)CCCN1Cc1ccc(Cl)cc1")
"active"
>>> label_class("Cc1c(O)c(Br)c(Br)c(Br)c1Br")
"active"
>>> label_class("C=C1C[C@H]2C=Nc3cc(OCCCOc4cc5c(cc4OC)C(=O)N4CC(=C)C[C@H]4C=N5)c(OC)cc3C(=O)N2C1")
"active"
>>> label_class("O=C1c2ccccc2-c2nnc3c(c21)Cc1ccccc1C3")
"inactive"
>>> label_class("O=C(/C=C/C(=N\\Nc1ccccc1)c1ccccc1)c1ccccc1")
"inactive"
>>> label_class("COc1cc2c[n+](C)c3c4cc(OC)c(OCc5ccccc5)cc4c(OCc4ccccc4)cc3c2cc1OC")
"inactive"
